Catalogue of pIC50 values
- Test system: RWPE-1
- Procedure Text: Cytotoxicity against human RWPE1 cells assessed as cell growth inhibition after 24 hrs by MTT assay
- Assay type: cell-based
- Protocol Conditions: RWPE-1, 24 h
pIC50: −log10 of the molar value.

Example cases with answers are listed next.
Give the value of pIC50 reported for the following: COc1cc2c(cc1OC)[C@@H]1CC(=O)C[C@@H](c3ccccc3)N1CC2 (relative stereo) < 4.70

Identify the reported pIC50 for the following entry. CCC[C@@H]1CC(=O)C/C=C(/CC)[C@H]2c3cc(OCc4ccccc4)c(OCc4ccccc4)cc3CCN12 (relative stereo) < 4.70

For C[C@@H]1C[C@@](C)(O)C[C@H]2c3cc(OCc4cc(C(F)(F)F)cc(C(F)(F)F)c4)c(OCc4cc(C(F)(F)F)cc(C(F)(F)F)c4)cc3CCN12 , write its pIC50. 5.59

Next:
Complete the entry with pIC50 for C[C@@H]1C[C@@](C)(O)C[C@H]2c3cc(OCc4ccc(C(C)(C)C)cc4)c(OCc4ccc(C(C)(C)C)cc4)cc3CCN12 5.39

Output measured pIC50 for this item: O[C@H]1C[C@@H](c2ccccc2)N2CCc3ccc(OCc4ccccc4)cc3[C@@H]2C1 < 4.70

Tell us which pIC50 value is on record for CC[C@@H]1C[C@H](O)C/C=C(/C)[C@H]2c3cc(OCc4ccccc4)c(OCc4ccccc4)cc3CCN12 < 4.70

Provide only the value of recorded pIC50 for O[C@H]1C[C@@H](c2ccccc2)N2CCc3ccccc3[C@@H]2C1 < 4.70

Read the entry Oc1cc2c(cc1O)[C@@H]1C[C@H](O)C[C@@H](c3ccccc3)N1CC2 and write its reported pIC50. < 4.70

Look up and state reported pIC50 for CCCCCCOc1cc2c(cc1OCCCCCC)[C@@H]1C[C@@H](O)C[C@@H](C)N1CC2 < 4.70

Tell us which pIC50 value is on record for O[C@@H]1C[C@@H](c2ccccc2)N2CCc3cc(OCc4ccccc4)ccc3[C@@H]2C1 < 4.70

Output measured pIC50 for this item: Cc1cc(C)cc(COc2cc3c(cc2OCc2cc(C)cc(C)c2)[C@@H]2CC(=O)C[C@@H](C)N2CC3)c1 (relative stereo) < 4.70

Identify the reported pIC50 for the following entry. C[C@@H]1C[C@@H](O)C[C@H]2c3cc4c(cc3CCN12)OCO4 < 4.70

Hello, please tell me recorded pIC50 for this one: C[C@@H]1C[C@H](O)C[C@H]2c3cc(OCc4cc(C(F)(F)F)cc(C(F)(F)F)c4)c(OCc4cc(C(F)(F)F)cc(C(F)(F)F)c4)cc3CCN12 5.63
